These data points were gathered from patent US20230416239A1.

Target: UniProt:P05112
Sequence (P05112 25-153, species assumed): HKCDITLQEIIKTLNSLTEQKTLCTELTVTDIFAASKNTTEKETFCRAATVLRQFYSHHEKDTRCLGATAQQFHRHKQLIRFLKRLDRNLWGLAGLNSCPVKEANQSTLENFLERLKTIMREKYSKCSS
Experiment: Immunoassay binding test, IL-4
Details: 100 μM
recordedMetric: BINDING IL4 % Neutra at 100 μM (%)

- O=S(=O)(c1ccccc1)n1cc(CN(CCCCNC2CCCCC2)Cc2ccncc2)c2ccccc21: 99.5
- FC(F)(F)c1cccc(-n2cc(CN(CCCCCNC3CCCCC3)Cc3ccncc3)c3ccccc32)c1: 96.3
- CN(CCN(Cc1cccnc1)Cc1cn(-c2cccc(C(F)(F)F)c2)c2ccccc12)C1CCCCC1: 97.7
- FC(F)(F)c1cccc(-n2cc(CN(CCCCNC3CCCCC3)Cc3ccncc3)c3ccccc32)c1: 98.4
- CN(CCCCN(Cc1cccnc1F)Cc1cn(S(=O)(=O)c2ccccc2)c2ccccc12)C1CCCCC1: 89.5
- O=S(=O)(c1ccccc1)n1cc(CN(CCCCCNC2CCCCC2)Cc2ccncc2)c2ccccc21: 96
- FC(F)(F)c1cccc(-n2cc(CN(CCCNC3CCCCC3)Cc3ccncc3)c3ccccc32)c1: 96.3
- O=S(=O)(c1ccccc1)n1cc(CN(CCCCNC2CCCCC2)Cc2cccc(F)n2)c2ccccc21: 90.5
- CCCN(CCOCCN(Cc1cccnc1F)Cc1cn(S(=O)(=O)c2ccccc2)c2ccccc12)C1CCCC1 [Compound 108]: 76.7
- CN(CCCCN(Cc1cccnc1F)Cc1cn(C)c2ccccc12)C1CCCCC1: 75.3
- CCN(CCOCCN(Cc1cccnc1F)Cc1cn(S(=O)(=O)c2ccccc2)c2ccccc12)C1CCCCC1 [Compound 100]: 87.7
- O=S(=O)(c1ccccc1)n1cc(CN(CCCCCNC2CCCCC2)Cc2ccc(F)nc2)c2ccccc21: 91.9
- CCCN(CCOCCN(Cc1cccnc1F)Cc1cn(S(=O)(=O)c2ccccc2)c2ccccc12)C1CCCCC1 [Compound 101]: 81.9
- O=S(=O)(c1ccccc1)n1cc(CN(CCCCCNCc2cccnc2F)Cc2cccnc2F)c2ccccc21: 81.5
- CN(CCCCN(Cc1cccnc1F)Cc1cn(S(=O)(=O)c2ccccc2)c2ccccc12)C1CCCC1: 89.8
- CN(CCCN(Cc1cccnc1)Cc1cn(-c2cccc(C(F)(F)F)c2)c2ccccc12)C1CCCCC1: 97.9
- O=S(=O)(c1ccccc1)n1cc(CN(Cc2cccc(F)n2)CC2CCCN(C3CCCCC3)C2)c2ccccc21 (stereo not drawn): 94.7
- CCCCN(CCOCCN(Cc1cccnc1F)Cc1cn(S(=O)(=O)c2ccccc2)c2ccccc12)C1CCCCC1 [Compound 102]: 83.2
